- Test system: MPNST multicellular tumor spheroids, viability % test/control
- Assay explanation: Anticancer human tumor MPNST cell line growth inhibition;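 further: luminescence signal used as surrogate for viable cell amount; spheroids exposed to agents for seven days after three days of growth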
- Condition description: second compound 94.9 pM; first compound 1 µM; hits give low values
Rule: viability, T/C below 80% gives 1, anything at or above gives 0.

INSERT INTO measurements (compound, classification) VALUES
  ('COc1cc(C)[nH]c(=O)c1CN1CCc2c(Cl)cc(C(OC)C3COC3)c(Cl)c2C1=O (stereo unspecified) + COc1cc2c(cc1O)CCNC21CSC2c3c(OC(C)=O)c(C)c4c(c3C(COC1=O)N1C(O)C3Cc5cc(C)c(OC)c(O)c5C(C21)N3C)OCO4', 1),
  ('[2H]c1nc(C)nc([2H])c1-c1cc(NC[C@@H](C)c2cccc3c(C(=O)NC)ccnc23)ncn1 + COc1cc2c(cc1O)CCNC21CSC2c3c(OC(C)=O)c(C)c4c(c3C(COC1=O)N1C(O)C3Cc5cc(C)c(OC)c(O)c5C(C21)N3C)OCO4', 0),
  ('CC(C)n1c(=O)n(C)c2cnc3cc(F)c(-c4ccc(OCCCN5CCCCC5)nc4)cc3c21 + COc1cc2c(cc1O)CCNC21CSC2c3c(OC(C)=O)c(C)c4c(c3C(COC1=O)N1C(O)C3Cc5cc(C)c(OC)c(O)c5C(C21)N3C)OCO4', 1),
  ('CC1COCCN1c1cc(-c2ccnn2C)c2ccnc(-c3ccn[nH]3)c2n1 (stereo unspecified) + COc1cc2c(cc1O)CCNC21CSC2c3c(OC(C)=O)c(C)c4c(c3C(COC1=O)N1C(O)C3Cc5cc(C)c(OC)c(O)c5C(C21)N3C)OCO4', 1);

Just wondering, is viability, T/C of Cc1cc(C)c(CNC(=O)c2cc(-c3ccc(CN4CCOCC4)cc3)cc3c2cnn3C2CCCC2)c(=O)[nH]1 + COc1cc2c(cc1O)CCNC21CSC2c3c(OC(C)=O)c(C)c4c(c3C(COC1=O)N1C(O)C3Cc5cc(C)c(OC)c(O)c5C(C21)N3C)OCO4 below 80%? 0

Just wondering, is viability, T/C of COc1ccc([C@@H](O)c2cc(-c3ncnc4cc(N5CCOCC5)ccc34)c(F)cc2Cl)nn1 + COc1cc2c(cc1O)CCNC21CSC2c3c(OC(C)=O)c(C)c4c(c3C(COC1=O)N1C(O)C3Cc5cc(C)c(OC)c(O)c5C(C21)N3C)OCO4 below 80%? 1
